B1: CPEB3 Ribozyme (parent)
chain: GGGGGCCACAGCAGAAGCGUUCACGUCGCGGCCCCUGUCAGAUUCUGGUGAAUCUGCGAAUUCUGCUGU

# Variants of: B1
# measurement protocol: self-cleavage, relative activity (ratio to wild type); higher = more cleavage; co-transcriptional
Rule: self-cleavage of 0.4 or more gives true; anything lower gives false.

Ask: Determine whether this variant has self-cleavage no lower than 0.4: A16U A60U
Result: false
